- Test system: H358 (G12C) cells
- procedure summary: Cell viability assay (CELLTITER-GLO), H358 cells
- Assay type: cell-based
- condition notes: Homo sapiens, NCI-H358, 72 h, 3 days at 37° C., CELLTITER-GLO luminescence, read-out: Inhibition of Cancerous Cells IC50 (μM) H358 (G12C)
observed property: IC50 (µM)

{"compound": "COc1cc2c(N[C@H](C)c3cccc(Br)c3)nc(C)nc2cc1OCCCCCCCCCN1CCN(C(=O)CNc2ccc3c(C4CCC(=O)NC4=O)nn(C)c3c2)CC1 (stereo partly drawn) [Compound D2]", "subject of test": "H358 (G12C) cells", "IC50 [µM]": 1.7}
{"compound": "COc1cc2c(N[C@H](C)c3cccc(Br)c3)nc(C)nc2cc1OCCCCCCCN1CCN(C(=O)CNc2ccc(C3CCC(=O)NC3=O)cc2)CC1 (stereo partly drawn)", "subject of test": "H358 (G12C) cells", "IC50 [µM]": 0.93}
{"compound": "COc1cc2c(N[C@H](C)c3cccc(Br)c3)nc(C)nc2cc1OCCCCCCCN1CCN(C(=O)CNc2cccc(C3CCC(=O)NC3=O)c2)CC1 (stereo partly drawn)", "subject of test": "H358 (G12C) cells", "IC50 [µM]": 1.1}

(I) COc1cc2c(N[C@H](C)c3cccc(Br)c3)nc(C)nc2cc1OCCCCCCCCCN1CCN(C(=O)COc2ccc(N3CCC(=O)NC3=O)cc2)CC1
(II) COc1cc2c(N[C@H](C)c3cccc(Br)c3)nc(C)nc2cc1OCCCCCCCCCCCN1CCN(C(=O)CNc2ccc(C3CCC(=O)NC3=O)cc2)CC1 (stereo partly drawn)
Given the listed records, identify the one among I and II with higher IC50. Give the chosen item's label as your response.
II
(II: 2.1 µM, I: 1.4 µM)

Source: patent US20240174643A1
